test system: Saccharomyces cerevisiae; assay: Antifungal activity against Saccharomyces cerevisiae assessed as inhibition of fungal growth incubated for 24 hrs by agar well diffusion method; assay type: functional; also: test concentration or dose not given here
Calls of active or inactive are those of the source. The rule behind the calls is not given here.
quantity: diameter of the inhibition zone (DIZ)

Examples with answers:
Cc1ccc([N+](=O)[O-])cc1NC(=O)Cn1cc(COc2ccc3c(c2)CCC3)nn1	inactive
O=C(Cn1cc(COc2ccc3c(c2)CCC3)nn1)Nc1ccccc1Cl	inactive
O=C(Cn1cc(COc2ccc3c(c2)CCC3)nn1)Nc1ccc(Cl)cc1	10 mm
c1ccc(-n2cc(COc3ccc4c(c3)CCC4)nn2)cc1	8 mm
Brc1cccc(-n2cc(COc3ccc4c(c3)CCC4)nn2)c1	7 mm

// next item, diameter of the inhibition zone (DIZ) requested
Fill in the recorded diameter of the inhibition zone (DIZ) for this molecule, with Saccharomyces cerevisiae as test system: O=C(Cn1cc(COc2ccc3c(c2)CCC3)nn1)Nc1ccc(F)cc1
inactive
